The measured values listed here are drawn from PubChem BioAssay AID2060503.

# Test system: 817829-284-R-J1-PDC complex spheroids, viability
# protocol_details: Anticancer human tumor 817829-284-R-J1-PDC patient-derived colon adenocarcinoma cell line growth inhibition [GQUAD]
# condition_description: curve of first compound; second compound 1 µM
# Source text: DNA G-quadruplex Stabilizer Agents in Combinations in Complex Spheroids A high-throughput screen of multi-cell type tumor spheroids was designed to identify active combinations of DNA G-quadruplex stabilizer agents and targeted small molecules. […] Compounds. […] If the clinical Cmax for an agent had not been determined, the highest concentration tested was 10 microM. […]
Examples of compounds with documented IC50 follow.
parameter: IC50

• CC(C)(O)C1CCC(Nc2ccc3ncc(-c4cccc(C(F)(F)F)c4)n3n2)CC1 (stereo not given) + CN(C)c1ccc(Nc2c3ccc(NC(=O)CCN4CCCC4)cc3nc3cc(NC(=O)CCN4CCCC4)ccc23)cc1 = 2260 nM
• O=C(NO)c1cnc(N2CCN(S(=O)(=O)c3ccc4ccccc4c3)CC2)nc1 + Cc1[nH]c2ccc(F)cc2c1-c1nc2c3cccnc3c3ncccc3c2[nH]1 = 186 nM
• O=C(NO)c1cnc(N2CCN(S(=O)(=O)c3ccc4ccccc4c3)CC2)nc1 + CN(C)c1ccc(Nc2c3ccc(NC(=O)CCN4CCCC4)cc3nc3cc(NC(=O)CCN4CCCC4)ccc23)cc1 = 182 nM
• CC[C@@]1(O)C(=O)OCc2c1cc1n(c2=O)Cc2cc3c(CN(C)C)c(O)ccc3nc2-1 + CN(C)c1ccc(Nc2c3ccc(NC(=O)CCN4CCCC4)cc3nc3cc(NC(=O)CCN4CCCC4)ccc23)cc1 = 63.7 nM
• Cn1ncnc1[C@H]1c2n[nH]c(=O)c3cc(F)cc(c23)N[C@@H]1c1ccc(F)cc1 + Cc1cnc(CNC(=O)c2c(=O)c3ccc(N4CCCN(C)CC4)nc3n3c2sc2ccccc23)cn1 = < 0.999 nM

----------
# Tested on: 817829-284-R-J1-PDC complex spheroids, viability
# protocol_details: Anticancer human tumor 817829-284-R-J1-PDC cell line growth inhibition [GQUAD];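 also: spheroids exposed to agents for 7 days before readout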;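 as to viability, T/C: percent viability relative to DMSO vehicle control taken as 100%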
# condition_description: second compound 3.16 µM; first compound 0.000999 µM; stronger effect = lower value
viability, T/C less than 20% is 1; viability, T/C greater than or equal to 20% is 0.

* CC[C@@]1(O)C(=O)OCc2c1cc1n(c2=O)Cc2cc3c(CN(C)C)c(O)ccc3nc2-1 + Cc1cnc(CNC(=O)c2c(=O)c3ccc(N4CCCN(C)CC4)nc3n3c2sc2ccccc23)cn1 | 0
* CCc1c2c(nc3ccc(O)cc13)-c1cc3c(c(=O)n1C2)COC(=O)[C@]3(O)CC + CN(C)c1ccc(Nc2c3ccc(NC(=O)CCN4CCCC4)cc3nc3cc(NC(=O)CCN4CCCC4)ccc23)cc1 | 0
* Cc1[nH]c2ccccc2c1CCNCc1ccc(/C=C/C(=O)NO)cc1 + Cc1cnc(CNC(=O)c2c(=O)c3ccc(N4CCCN(C)CC4)nc3n3c2sc2ccccc23)cn1 | 1
* Cn1ncnc1[C@H]1c2n[nH]c(=O)c3cc(F)cc(c23)N[C@@H]1c1ccc(F)cc1 + Cc1[nH]c2ccc(F)cc2c1-c1nc2c3cccnc3c3ncccc3c2[nH]1 | 0
* Cc1[nH]c2ccccc2c1CCNCc1ccc(/C=C/C(=O)NO)cc1 + CN(C)c1ccc(Nc2c3ccc(NC(=O)CCN4CCCC4)cc3nc3cc(NC(=O)CCN4CCCC4)ccc23)cc1 | 0

----------
Some compounds, each annotated with its measured viability, T/C.
# Test system: 817829-284-R-J1-PDC complex spheroids, viability
# protocol_details: Anticancer human tumor 817829-284-R-J1-PDC cell line growth inhibition [GQUAD];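 also: spheroids exposed to agents for 7 days before readout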;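 as to viability, T/C: percent viability relative to DMSO vehicle control taken as 100%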
# condition_description: second compound 0.1 µM; first compound 0.1 µM; stronger effect = lower value
parameter: viability, T/C (%)

- C#Cc1c(F)ccc2cc(O)cc(-c3ncc4c(N5CC6CCC(C5)N6)nc(OCC56CCCN5CC(F)C6)nc4c3F)c12 (stereo not drawn) + Cc1[nH]c2ccc(F)cc2c1-c1nc2c3cccnc3c3ncccc3c2[nH]1: 108
- CC1COCCN1c1cc(C2(S(C)(=N)=O)CC2)nc(-c2ccnc3[nH]ccc23)n1 (stereo not drawn) + CN(C)c1ccc(Nc2c3ccc(NC(=O)CCN4CCCC4)cc3nc3cc(NC(=O)CCN4CCCC4)ccc23)cc1: 95.4
- COc1ncnc(C2CC2)c1-c1ncc2cnn(Cc3ccc(-c4nc(C(F)(F)F)cn4C(C)C)cc3)c2n1 + Cc1cnc(CNC(=O)c2c(=O)c3ccc(N4CCCN(C)CC4)nc3n3c2sc2ccccc23)cn1: 31.1

----------
# Test system: 817829-284-R-J1-PDC complex spheroids, viability
# protocol_details: Anticancer human tumor 817829-284-R-J1-PDC cell line growth inhibition [GQUAD];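 also: spheroids exposed to agents for 7 days before readout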;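 as to viability, T/C: percent viability relative to DMSO vehicle control taken as 100%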
# condition_description: second compound 3.16 µM; first compound 0.0316 µM; stronger effect = lower value
viability, T/C values by entry
parameter: viability, T/C (%)

* CC1COCCN1c1cc(C2(O)CC3CCC(C2)O3)c2cnn(-c3ccn[nH]3)c2n1 (stereo unspecified) + Cc1[nH]c2ccc(F)cc2c1-c1nc2c3cccnc3c3ncccc3c2[nH]1 | 19.1
* COc1ccc([C@@H](O)c2cc(-c3ncnc4cc(N5CCOCC5)ccc34)c(F)cc2Cl)nn1 + Cc1[nH]c2ccc(F)cc2c1-c1nc2c3cccnc3c3ncccc3c2[nH]1 | 102
* CCc1c2c(nc3ccc(O)cc13)-c1cc3c(c(=O)n1C2)COC(=O)[C@]3(O)CC + Cc1cnc(CNC(=O)c2c(=O)c3ccc(N4CCCN(C)CC4)nc3n3c2sc2ccccc23)cn1 | 10.7
* O=C(c1cc(Cc2n[nH]c(=O)c3ccccc23)ccc1F)N1CCN(C(=O)C2CC2)CC1 + CN(C)c1ccc(Nc2c3ccc(NC(=O)CCN4CCCC4)cc3nc3cc(NC(=O)CCN4CCCC4)ccc23)cc1 | 100
* C=CCn1c(=O)c2cnc(Nc3ccc(N4CCN(C)CC4)cc3)nc2n1-c1cccc(C(C)(C)O)n1 + CN(C)c1ccc(Nc2c3ccc(NC(=O)CCN4CCCC4)cc3nc3cc(NC(=O)CCN4CCCC4)ccc23)cc1 | 89.3
* Cc1cccc(N(C)C(=O)C2C(O)CCN2c2nc(C)cc(C(F)(F)F)c2C#N)c1 (stereo unspecified) + Cc1[nH]c2ccc(F)cc2c1-c1nc2c3cccnc3c3ncccc3c2[nH]1 | 94.9
* COc1cccc2c1C(=O)c1c(O)c3c(c(O)c1C2=O)CC(O)(C(=O)CO)CC3OC1CC(N)C(O)C(C)O1 (stereo unspecified) + CN(C)c1ccc(Nc2c3ccc(NC(=O)CCN4CCCC4)cc3nc3cc(NC(=O)CCN4CCCC4)ccc23)cc1 | 91.9
* CC[C@@]1(O)C(=O)OCc2c1cc1n(c2=O)Cc2cc3c(CN(C)C)c(O)ccc3nc2-1 + Cc1cnc(CNC(=O)c2c(=O)c3ccc(N4CCCN(C)CC4)nc3n3c2sc2ccccc23)cn1 | 19.2
* Cc1cccc(N(C)C(=O)C2C(O)CCN2c2nc(C)cc(C(F)(F)F)c2C#N)c1 (stereo unspecified) + Cc1cnc(CNC(=O)c2c(=O)c3ccc(N4CCCN(C)CC4)nc3n3c2sc2ccccc23)cn1 | 20.1
* CC1COCCN1c1cc(C2(O)CC3CCC(C2)O3)c2cnn(-c3ccn[nH]3)c2n1 (stereo unspecified) + CN(C)c1ccc(Nc2c3ccc(NC(=O)CCN4CCCC4)cc3nc3cc(NC(=O)CCN4CCCC4)ccc23)cc1 | 28.9
* COc1ncnc(C2CC2)c1-c1ncc2cnn(Cc3ccc(-c4nc(C(F)(F)F)cn4C(C)C)cc3)c2n1 + Cc1[nH]c2ccc(F)cc2c1-c1nc2c3cccnc3c3ncccc3c2[nH]1 | 63.5
* COc1cc(C2c3cc4c(cc3C(OC3OC5COC(C)OC5C(O)C3O)C3COC(=O)C23)OCO4)cc(OC)c1O (stereo unspecified) + Cc1cnc(CNC(=O)c2c(=O)c3ccc(N4CCCN(C)CC4)nc3n3c2sc2ccccc23)cn1 | 19.6
* C#Cc1c(F)ccc2cc(O)cc(-c3ncc4c(N5CC6CCC(C5)N6)nc(OCC56CCCN5CC(F)C6)nc4c3F)c12 (stereo unspecified) + Cc1[nH]c2ccc(F)cc2c1-c1nc2c3cccnc3c3ncccc3c2[nH]1 | 3.89
* O=C(c1cc(Cc2n[nH]c(=O)c3ccccc23)ccc1F)N1CCN(C(=O)C2CC2)CC1 + Cc1[nH]c2ccc(F)cc2c1-c1nc2c3cccnc3c3ncccc3c2[nH]1 | 98.9
* CCCS(=O)(=O)Nc1ccc(F)c(C(=O)c2c[nH]c3ncc(-c4ccc(Cl)cc4)cc23)c1F + Cc1[nH]c2ccc(F)cc2c1-c1nc2c3cccnc3c3ncccc3c2[nH]1 | 60.6
* O=C(NO)c1cnc(N2CCN(S(=O)(=O)c3ccc4ccccc4c3)CC2)nc1 + CN(C)c1ccc(Nc2c3ccc(NC(=O)CCN4CCCC4)cc3nc3cc(NC(=O)CCN4CCCC4)ccc23)cc1 | 110
* CC(C)(O)C1CCC(Nc2ccc3ncc(-c4cccc(C(F)(F)F)c4)n3n2)CC1 (stereo unspecified) + Cc1[nH]c2ccc(F)cc2c1-c1nc2c3cccnc3c3ncccc3c2[nH]1 | 3.3
* Cc1[nH]c2ccccc2c1CCNCc1ccc(/C=C/C(=O)NO)cc1 + Cc1[nH]c2ccc(F)cc2c1-c1nc2c3cccnc3c3ncccc3c2[nH]1 | 38.8
* C#Cc1c(F)ccc2cc(O)cc(-c3ncc4c(N5CC6CCC(C5)N6)nc(OCC56CCCN5CC(F)C6)nc4c3F)c12 (stereo unspecified) + Cc1cnc(CNC(=O)c2c(=O)c3ccc(N4CCCN(C)CC4)nc3n3c2sc2ccccc23)cn1 | 17
* CC1COCCN1c1cc(-c2ccnn2C)c2ccnc(-c3ccn[nH]3)c2n1 (stereo unspecified) + Cc1cnc(CNC(=O)c2c(=O)c3ccc(N4CCCN(C)CC4)nc3n3c2sc2ccccc23)cn1 | 11.8
* CC(C)n1c(=O)n(C)c2cnc3cc(F)c(-c4ccc(OCCCN5CCCCC5)nc4)cc3c21 + Cc1[nH]c2ccc(F)cc2c1-c1nc2c3cccnc3c3ncccc3c2[nH]1 | 76.6
